These measurements were taken from the supplement of paper PMC7125110.

B1: glmS ribozyme (parent)
chain: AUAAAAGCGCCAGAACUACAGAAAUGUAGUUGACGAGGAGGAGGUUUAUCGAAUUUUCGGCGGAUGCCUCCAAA

# Variants of: B1
# protocol_description: kcat; higher = faster cleavage; RNA array
# cond: with glucosamine-6-phosphate
This sample holds only a part of the variants without activity.
value_type: kcat

# example entries with known answers
{"entry_sequence": "AUAAAAGCGCCAGAACUACAGAAAUGUAGUUGACGAGGAGGAGGUUUAUCGAAUUUUCGGAGGAUUCCUCCAAA [C61A G66U]", "value_type": "kcat", "obs_value": "< 1e-05 s⁻¹"}
{"entry_sequence": "AUAAAAGCGCCAGAACUACAGAAAUGUAGUUGACGAGGAGGAGGUUUAUCAAAUUUUCGGCGGAUGCCACCAAA [G51A U69A]", "value_type": "kcat", "obs_value": "1.6e-05 s⁻¹"}
{"entry_sequence": "AUAAAAGCGCCAGAACUACAGAAAUGUAGUUGACGAGGAGAGGGUUUAUCGAAUUUUCGGCGGAUGCCUCCAAA [G41A A42G]", "value_type": "kcat", "obs_value": "0.000223 s⁻¹"}

# query: kcat of entry AUAAAAGCGCCUGAACUACAGAAAUGUAGUUGACGAGGAUGAGGUUUAUCGAAUUUUCGGCGGAUGCCUCCAAA [A12U G40U]
0.0088 s⁻¹

Consider next the variant AUAAAAGCGCCAGAACUACAGAAAUGUAGUUGACGAGGAGUAGGUUUUUCGAAUUUUCGGCGGAUGCCUCCAAA [G41U A48U] in the same way.
5.64e-05 s⁻¹

Consider next the variant AUAAAAGCGUCAGAACUACAGAAAUGUAGUUGACGAGGAGGAGGUUUAUCGAAUUUUCGGCGGAUGCCUUCAAA [C10U C70U] in the same way.
2.53e-05 s⁻¹

Consider next the variant AUAAAAGCGCCAGAACUACAGAAAUGUAGUUGAUGAGGAGGAGGUUUAUAGAAUUUUCGGCGGAUGCCUCCAAA [C34U C50A] in the same way.
1.45e-05 s⁻¹

Consider next the variant AUAAAAGCGCCAGAACUACAGAAAUGUAGUUGACGAGGAGGAGGUUUAUCGACUUUUCGGCGGUUGCCUCCAAA [A53C A64U] in the same way.
< 1e-05 s⁻¹

Consider next the variant AUAAAAGCGCCAGAACUACAGAAAUGUAGUUGACGAGGAGCAGGUUUAUCGAAUUUUCGGCGGAUGCCUCGAAA [G41C C71G] in the same way.
6.73e-05 s⁻¹

Consider next the variant AUAAAAGCGCCAGAACUACAGAAAUGUAGUUGACGACGAGGAGGUUUAUCGAAUUUUCUGCGGAUGCCUCCAAA [G37C G59U] in the same way.
1.65e-05 s⁻¹

Consider next the variant AUAAAAGCGCCAGAACUACAGAAAUGUAGUUGACGAGGAGGAGGUUUAUCGAAUUUUCGGCGGAUGACUCCAAA [C67A] in the same way.
0.0168 s⁻¹
